Would you mind telling me the reported Cell kill IC50, MDA-MB468 of each entry?
Molecular target: T1, human nectin-4 protein expressed on the surface of cells (human, UniProt Q96NY8 32-510)
T1 sequence: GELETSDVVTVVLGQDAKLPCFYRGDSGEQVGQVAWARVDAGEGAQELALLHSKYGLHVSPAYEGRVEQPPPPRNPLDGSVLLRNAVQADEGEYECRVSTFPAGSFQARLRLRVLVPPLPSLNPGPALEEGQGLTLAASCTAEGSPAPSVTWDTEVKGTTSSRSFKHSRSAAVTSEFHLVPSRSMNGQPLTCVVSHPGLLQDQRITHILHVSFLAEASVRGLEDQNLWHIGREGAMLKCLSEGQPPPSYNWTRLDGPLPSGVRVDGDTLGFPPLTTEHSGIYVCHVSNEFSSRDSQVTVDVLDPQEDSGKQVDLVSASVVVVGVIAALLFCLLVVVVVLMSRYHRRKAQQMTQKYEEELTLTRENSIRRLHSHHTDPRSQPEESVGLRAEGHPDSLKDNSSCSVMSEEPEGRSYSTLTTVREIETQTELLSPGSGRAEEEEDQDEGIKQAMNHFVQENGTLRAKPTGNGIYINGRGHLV
Experiment: cell-based or functional assay
Please reply with the bare figure in nM and do not write the unit itself.

Q) Given the binder Nectin-4 5D9 VH2/VL4 (antibody, V domains shown, Humanized; also called 5D9 VH variant 2 / 5D9 VL variant 4) VH: QVQLQESGPGLVKPSETLSLTCTVSGFSITNYGVHWIRQPPGKGLEWLGVIWSGGSTDYNASLVSRVTISRDTSKSQFFLKLNSVQADDTAVYYCARSGKWYYFDYWGQGTTVTVSS VL: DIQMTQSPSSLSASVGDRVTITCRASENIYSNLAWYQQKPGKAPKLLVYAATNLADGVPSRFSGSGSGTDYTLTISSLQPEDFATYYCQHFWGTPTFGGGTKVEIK , write its reported Cell kill IC50, MDA-MB468.
A) 27

Q) Given the binder Nectin-4 5D9 VH4/VL4 (antibody, V domains shown, Humanized; also called 5D9 VH variant 4 / 5D9 VL variant 4) VH: QVQLQQSGPGLVKPSETLSLTCTVSGFSLTNYGVHWVRQPPGKGLEWLGVIWSGGSTDYNPSLKSRLTISRDTSKNQVSFKMSSVTAADTAVYYCARSGKWYYFDYWGQGTLVTVSS VL: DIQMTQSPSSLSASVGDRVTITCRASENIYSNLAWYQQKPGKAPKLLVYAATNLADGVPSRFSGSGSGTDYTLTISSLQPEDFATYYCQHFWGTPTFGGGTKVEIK , write its reported Cell kill IC50, MDA-MB468.
A) 3.37

Q) Given the binder Nectin-4 5D9 VH1/VL1 (antibody, V domains shown, Humanized; also called 5D9 VH variant 1 / 5D9 VL variant 1) VH: QVQLKESGPGLVQPSETLSLTCTVSGFSITNYGVHWIRQSPGKGLEWLGVIWSGGSTDYNAAFVSRVTISRDNSKSQVFFKLNSVQADDTAVYYCARSGKWYYFDYWGQGTTVTVSS VL: DIQMTQSPASLSASVGDTVTITCRASQNIYSNLAWYQQKQGKSPQLLVYAATNLADGVPSRFSGSGSGTQYTLKINSLQSEDFGTYYCQHFWGTPTFGGGTKVEIK , write its reported Cell kill IC50, MDA-MB468.
A) 1.42
